- Test system: DU-145
- experimentDescription: Cytotoxicity against human DU145 cells after 24 hrs by FMCA method
- Type: functional, cell-based
- cond: DU-145, 24 h
assayMetric: pIC50
// scale note: pIC50 = -log10(conc_M); give the bare number

Please review the following examples before continuing.
CO[C@@H]1[C@@H](O)[C@H](C)O[C@@H](OC[C@@]2(O)CO[C@@H](Oc3c(-c4ccc(O)c(O)c4)oc4cc(O)cc(O)c4c3=O)[C@@H]2O)[C@@H]1O : 4.66
CO[C@@H]1[C@@H](O)[C@H](C)O[C@@H](Oc2c(-c3ccc(O)c(O)c3)oc3cc(O)cc(O)c3c2=O)[C@@H]1O : 6.10

Recorded result, `O=c1c(O[C@@H]2O[C@@H](CO)[C@H](O)[C@H]2O)c(-c2ccc(O)cc2)oc2cc(O)cc(O)c12` , pIC50: 5.62
